Reported inhibition of growth at 10 µM values for a set of compounds
Test system: OVCAR-5
Experiment: Growth inhibition of human OVCAR5 cells at 10^-5 M after 48 hrs by Sulforhodamine B assay relative to control
Format: functional
Conditions: OVCAR-5, 48 h, read-out: GI
For clarity, give the value followed by its unit.

Example entries and their recorded answers appear below.
c1cc(-c2nc(N3CCOCC3)c3c4c(sc3n2)CCCCCC4)ccn1; -1.32%
c1ccc(N2CCN(c3nc(-c4ccccn4)nc4sc5c(c34)CCCCCC5)CC2)cc1; 36.8%

stdin: Consider the compound c1ccc(N2CCN(c3nc(-c4ccncc4)nc4sc5c(c34)CCCCCC5)CC2)cc1 and give its recorded inhibition of growth at 10 µM.
stdout: 1.59%
